Target: GPIIb/IIIa (Homo sapiens, UniProt P05106+P08514)
Sequence (P08514 32-887 limits assumed): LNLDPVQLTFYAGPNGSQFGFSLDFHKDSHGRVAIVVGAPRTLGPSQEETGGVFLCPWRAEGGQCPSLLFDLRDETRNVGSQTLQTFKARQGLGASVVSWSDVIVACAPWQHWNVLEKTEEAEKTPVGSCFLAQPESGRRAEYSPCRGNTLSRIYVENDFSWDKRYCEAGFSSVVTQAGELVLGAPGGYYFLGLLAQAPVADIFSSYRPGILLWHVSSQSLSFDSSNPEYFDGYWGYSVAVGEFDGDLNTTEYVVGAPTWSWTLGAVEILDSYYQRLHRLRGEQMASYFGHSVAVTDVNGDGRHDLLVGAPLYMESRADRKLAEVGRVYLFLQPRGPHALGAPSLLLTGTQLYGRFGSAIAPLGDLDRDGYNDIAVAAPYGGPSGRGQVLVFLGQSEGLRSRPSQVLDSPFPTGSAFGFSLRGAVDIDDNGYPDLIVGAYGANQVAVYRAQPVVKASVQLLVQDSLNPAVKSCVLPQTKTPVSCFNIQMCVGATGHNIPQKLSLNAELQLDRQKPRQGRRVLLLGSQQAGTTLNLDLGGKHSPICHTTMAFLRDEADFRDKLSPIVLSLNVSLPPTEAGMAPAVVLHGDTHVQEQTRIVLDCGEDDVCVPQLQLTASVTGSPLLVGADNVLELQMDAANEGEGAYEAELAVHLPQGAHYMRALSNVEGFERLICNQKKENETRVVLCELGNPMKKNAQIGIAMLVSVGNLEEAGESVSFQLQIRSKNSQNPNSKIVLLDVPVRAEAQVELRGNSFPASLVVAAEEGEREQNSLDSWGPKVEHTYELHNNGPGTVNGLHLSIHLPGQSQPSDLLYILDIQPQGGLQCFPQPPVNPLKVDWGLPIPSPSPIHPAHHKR
Sequence (P08514 891-1039 partner limits assumed): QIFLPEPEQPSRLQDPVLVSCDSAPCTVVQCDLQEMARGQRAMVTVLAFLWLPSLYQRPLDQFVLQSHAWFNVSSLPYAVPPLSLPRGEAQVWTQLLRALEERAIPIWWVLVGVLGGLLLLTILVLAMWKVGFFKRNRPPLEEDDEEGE
Sequence (P05106 27-788): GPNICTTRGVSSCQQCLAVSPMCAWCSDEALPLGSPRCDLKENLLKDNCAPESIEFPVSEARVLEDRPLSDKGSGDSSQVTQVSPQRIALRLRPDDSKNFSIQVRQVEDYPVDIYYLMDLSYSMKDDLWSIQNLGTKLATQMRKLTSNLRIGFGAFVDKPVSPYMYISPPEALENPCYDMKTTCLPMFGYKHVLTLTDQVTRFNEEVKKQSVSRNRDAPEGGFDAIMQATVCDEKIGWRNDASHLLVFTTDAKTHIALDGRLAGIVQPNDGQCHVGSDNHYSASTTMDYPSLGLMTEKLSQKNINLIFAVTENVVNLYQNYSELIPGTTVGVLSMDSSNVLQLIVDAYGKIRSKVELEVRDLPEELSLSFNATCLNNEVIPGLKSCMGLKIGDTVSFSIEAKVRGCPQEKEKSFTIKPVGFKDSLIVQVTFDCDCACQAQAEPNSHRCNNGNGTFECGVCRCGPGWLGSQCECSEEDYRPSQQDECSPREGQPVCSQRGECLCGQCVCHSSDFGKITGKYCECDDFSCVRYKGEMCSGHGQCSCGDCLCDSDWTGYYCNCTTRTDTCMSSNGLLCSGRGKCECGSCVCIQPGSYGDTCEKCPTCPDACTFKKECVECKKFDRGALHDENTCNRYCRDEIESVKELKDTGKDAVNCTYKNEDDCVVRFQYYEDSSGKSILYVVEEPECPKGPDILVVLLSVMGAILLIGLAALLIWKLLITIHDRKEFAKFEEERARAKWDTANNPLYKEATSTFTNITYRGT
Test: In vitro solid phase purified glycoprotein IIb/IIIa binding assay (biotinylated fibrinogen)
Conditions: RGD-affinity purified GPIIb/IIIa, biotinylated fibrinogen; read-out: GPIIb/IIIa Binding IC50
pIC50: −log10 of the molar value.
property-label: pIC50

O=C(O)[C@H](Cc1nc2ccc(/C=C/CNc3ccccn3)cc2c(=O)[nH]1)NS(=O)(=O)c1ccc(C(F)(F)F)cc1: 5.02

(I) O=C(NC/C=C/c1ccc2nc(C[C@H](NS(=O)(=O)c3cccs3)C(=O)O)[nH]c(=O)c2c1)NCc1ccccc1
(II) Cc1coc(NC/C=C/c2ccc3nc(C[C@H](NS(=O)(=O)c4c(C)c(C)c(C)c(C)c4C)C(=O)O)[nH]c(=O)c3c2)n1
Prompt: Of the pair I and II , name the member with the lesser recorded pIC50. The response must carry the label of the picked entry.
Completion: I
(I: 4.77, II: 5.15)

(a) Cc1c(C)c(C)c(S(=O)(=O)N[C@@H](Cc2nc3ccc(/C=C/CNC4=NCCN4)cc3c(=O)[nH]2)C(=O)O)c(C)c1C
(b) Cn1c(C(CC(=O)O)c2ccccc2)nc2ccc(C=CCNC3=NCCN3)cc2c1=O (stereo not drawn)
Prompt: Which has the smaller recorded pIC50, a or b ? // caller expects the label of the chosen entry
Completion: b

(I) COc1ccc(S(=O)(=O)N[C@@H](Cc2nc3ccc(/C=C/CNC4=NCCCC4)cc3c(=O)[nH]2)C(=O)O)cc1OC
(II) Cc1c(C)c(C)c(S(=O)(=O)N[C@@H](Cc2nc3ccc(/C=C/CCNC4=NCCN4)cc3c(=O)[nH]2)C(=O)O)c(C)c1C
(III) C=C(CNC(=O)NC(C)C)c1ccc2nc(C[C@H](NS(=O)(=O)c3c(C)c(C)c(C)c(C)c3C)C(=O)O)[nH]c(=O)c2c1
Prompt: Ascending by pIC50, please: list the molecules accordingly. Submit the labels in the order that the ranking request calls for.
Completion: III, I, II
(III: 5.96, I: 6.21, II: 7.22)

---

Molecular target: Human αvβ3 (Homo sapiens, UniProt P05106+P06756)
Construct: purchased Chemicon International Inc., Temecula, Calif
Sequence (P06756 31-889 limits assumed): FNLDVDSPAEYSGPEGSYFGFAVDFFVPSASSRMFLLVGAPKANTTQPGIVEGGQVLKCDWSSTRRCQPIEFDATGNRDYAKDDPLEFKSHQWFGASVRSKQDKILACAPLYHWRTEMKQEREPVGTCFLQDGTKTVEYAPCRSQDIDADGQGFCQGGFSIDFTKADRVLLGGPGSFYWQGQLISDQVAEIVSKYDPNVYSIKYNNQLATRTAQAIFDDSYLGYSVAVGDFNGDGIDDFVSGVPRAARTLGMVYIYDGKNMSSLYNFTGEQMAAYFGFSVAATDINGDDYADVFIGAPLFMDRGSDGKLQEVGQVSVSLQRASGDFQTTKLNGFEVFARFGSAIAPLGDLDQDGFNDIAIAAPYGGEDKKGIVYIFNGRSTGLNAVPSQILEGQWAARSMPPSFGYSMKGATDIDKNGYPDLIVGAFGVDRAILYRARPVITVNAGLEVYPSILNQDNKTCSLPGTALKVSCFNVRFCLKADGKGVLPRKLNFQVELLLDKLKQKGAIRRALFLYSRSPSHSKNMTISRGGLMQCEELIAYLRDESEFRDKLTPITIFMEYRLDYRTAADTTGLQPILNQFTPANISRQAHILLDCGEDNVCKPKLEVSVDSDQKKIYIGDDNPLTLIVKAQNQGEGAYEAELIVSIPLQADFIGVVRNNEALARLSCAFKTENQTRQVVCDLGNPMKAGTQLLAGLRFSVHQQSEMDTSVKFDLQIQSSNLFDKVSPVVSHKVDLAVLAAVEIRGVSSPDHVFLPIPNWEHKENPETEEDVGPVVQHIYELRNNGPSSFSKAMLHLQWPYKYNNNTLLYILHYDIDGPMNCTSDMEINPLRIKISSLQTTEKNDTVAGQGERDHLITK
Sequence (P06756 891-1048 partner limits assumed): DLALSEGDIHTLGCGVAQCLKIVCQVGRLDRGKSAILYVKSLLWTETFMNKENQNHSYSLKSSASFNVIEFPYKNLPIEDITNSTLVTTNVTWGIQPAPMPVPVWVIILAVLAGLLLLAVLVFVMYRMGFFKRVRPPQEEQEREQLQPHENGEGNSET
Sequence (P05106 27-788): as the sequence (P05106 27-788) above
Test: In vitro solid phase purified αvβ3 binding assay (vitronectin/αvβ3)
Details: isolated human αvβ3, 5 nM vitronectin; read-out: αvβ3 Binding IC50
Description: In vitro Solid Phase Purified αvβ3 Binding Assay The vitronectin/αvβ3 binding assay methods were derived from Mehta et al. (Biochem J. 1998, 330, 861). […] Plates were read at 490 nm on a Molecular Devices (Sunnyvale, Calif.) microplate reader. […] The absorbance was read at 490 nm.
property-label: IC50 (nM)

Examples from the recorded data:
CC(C)(C)OC(=O)N[C@@H](Cc1nc2ccc(/C=C/CNC3=NCCCCC3)cc2c(=O)[nH]1)C(=O)O [Compound 71]: 960
Cc1c(C)c(C)c(S(=O)(=O)N[C@@H](Cc2nc3ccc(/C=C/CNC(=O)NC4CCCCC4)cc3c(=O)[nH]2)C(=O)O)c(C)c1C [Compound 75]: 620
COc1ccc(S(=O)(=O)N[C@@H](Cc2nc3ccc(/C=C/CNc4ccc(C)cn4)cc3c(=O)[nH]2)C(=O)O)cc1OC [Compound 44]: 24
Cc1c(C)c(C)c(S(=O)(=O)N[C@@H](Cc2nc3ccc(/C=C/CNc4ccc(Cl)cn4)cc3c(=O)[nH]2)C(=O)O)c(C)c1C [Compound 39]: 1800
O=C(NC/C=C/c1ccc2nc(C[C@H](NS(=O)(=O)Cc3ccccc3)C(=O)O)[nH]c(=O)c2c1)NCc1ccccc1 [Compound 70]: 550

(1) Cc1c(C)c(C)c(S(=O)(=O)N[C@@H](Cc2nc3ccc(/C=C/CNC4=NCCCC4)cc3c(=O)[nH]2)C(=O)O)c(C)c1C [Compound 52]
(2) Cc1c(C)c(C)c(S(=O)(=O)N[C@@H](Cc2nc3ccc(/C=C/CNc4nc5ccccc5c(=O)[nH]4)cc3c(=O)[nH]2)C(=O)O)c(C)c1C [Compound 61]
(3) Cc1ccnc(NC/C=C/c2ccc3nc(C[C@H](NC(=O)OCc4ccccc4)C(=O)O)[nH]c(=O)c3c2)c1 [Compound 69]
(4) Cc1c(C)c(C)c(S(=O)(=O)N[C@@H](Cc2nc3ccc(/C=C/CNC4=NCCN4)cc3c(=O)[nH]2)C(=O)O)c(C)c1C [Compound 1]
Prompt: Put the compounds in ascending order of IC50. Returns: the labels arranged in the requested order.
Completion: 4, 1, 2, 3

(a) CCCCNC(=O)NC/C=C/c1ccc2nc(C[C@H](NS(=O)(=O)c3c(C)c(C)c(C)c(C)c3C)C(=O)O)[nH]c(=O)c2c1 [Compound 51]
(b) COc1ccc(S(=O)(=O)N[C@@H](Cc2nc3ccc(/C=C/CNC4=NCCCCCC4)cc3c(=O)[nH]2)C(=O)O)cc1OC [Compound 68]
Prompt: Which entry has a larger number for IC50, a or b ? Returns: label corresponding to the selected item.
Completion: b

(a) Cc1cc(C)c(S(=O)(=O)N[C@@H](Cc2nc3ccc(/C=C/CNC(=O)NCc4ccccc4)cc3c(=O)[nH]2)C(=O)O)c(C)c1 [Compound 62]
(b) COc1cc(C)c(S(=O)(=O)N[C@@H](Cc2nc3ccc(/C=C/CNC(=O)NCc4ccccc4)cc3c(=O)[nH]2)C(=O)O)c(C)c1C [Compound 56]
Prompt: Which record shows the lower IC50: the first, a , or the second, b ? Identify your selection by its label.
Completion: b
(b: 32 nM, a: 79 nM)
